# literature pull: Serine protease 1 (Homo sapiens, UniProt P07477) Ki
# Sequence (P07477 whole entry): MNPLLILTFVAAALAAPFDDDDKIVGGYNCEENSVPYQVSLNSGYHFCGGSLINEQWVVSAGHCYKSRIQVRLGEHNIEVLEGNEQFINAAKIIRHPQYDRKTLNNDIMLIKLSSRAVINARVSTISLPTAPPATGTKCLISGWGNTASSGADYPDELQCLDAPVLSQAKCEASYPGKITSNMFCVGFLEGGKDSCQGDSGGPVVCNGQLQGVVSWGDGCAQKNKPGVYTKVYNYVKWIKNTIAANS
Provide the reading as a plain figure in µM.

Incoming: Return reported Ki; argument: CC1CCCCN1C(=O)N(Cc1cccc(C(=N)NO)c1)NS(=O)(=O)c1ccc2ccccc2c1 (stereo not drawn)
Outgoing: 67

Incoming: Field entry: N=C(N)c1ccc(O)c(/C=C/CNC(=O)c2cc3nnc(O)cc3s2)c1
Outgoing: 1.4

Incoming: What about this molecule? N=C(N)c1cccc(C(=O)N[C@@H](C(=O)N2CCN(C(=O)c3ccccc3)CC2)c2ccccc2)c1
Outgoing: 0.46

Incoming: Likewise for N=C(N)Nc1ccc(CNC(=O)CCNC(=O)OCc2ccc(COC(=O)NCCC(=O)NCc3ccc(NC(=N)N)cc3)cc2)cc1 ?
Outgoing: 72

Incoming: Now give it for c1ccc(C(Oc2ccc(CNc3ccncc3)cc2)c2ccccc2)cc1 too.
Outgoing: 77

----------
Multi-source literature compilation: Ki on Serine protease 1 (Homo sapiens, UniProt P07477).
Criterion: Ki strictly under 900 nM. Met: condition met. Not met: condition not met.

Incoming: Given COC(=O)OC[C@@H](NS(=O)(=O)Cc1ccccc1)C(=O)NCC(=O)NCc1ccc(C(=N)N)cc1 , is recorded Ki strictly lower than 900 nM?
Outgoing: condition met

Incoming: Also CC(C)[C@H](NC(=O)c1cccc(C(=N)N)c1)C(=O)NCC1CCC(CN)CC1 (stereo partly drawn) , if possible.
Outgoing: condition not met

Incoming: Next molecule up: N=C(N)N1CCCC(C[C@H](NC(=O)CN2C(=O)CN(CCCc3ccccc3)C(=O)[C@@H]2Cc2ccc3ccccc3c2)C(=O)c2nccs2)C1 (stereo partly drawn)
Outgoing: condition met

Incoming: Field entry: N=C(N)Nc1ccc(CNC(=O)N2CCN(C(=O)O[C@H]3CCC[C@@H](OC(=O)N4CCN(C(=O)NCC5CCNCC5)CC4)CCC3)CC2)cc1
Outgoing: condition not met

Incoming: Same read-out for c1ccc(COc2ccc(CCNc3ccncc3)cc2)cc1 ?
Outgoing: condition not met

Incoming: Thanks! And N=C(N)c1ccc(O)c(CCCNC(=O)c2ccc(-c3cccnc3)cc2)c1 ?
Outgoing: condition not met

Incoming: Do the same for CCS(=O)(=O)CC1(C(=O)Nc2ccc(-c3ccccc3S(N)(=O)=O)cc2)CC(c2cccc(C(=N)N)c2)=NO1 (stereo not drawn) please
Outgoing: condition met

----------
Ki values for Serine protease 1 (Homo sapiens) compiled from several publications are listed below.

Incoming: Which Ki is reported for this compound? CN1CCOc2ccccc2CNC(=O)Cn2c(Cl)cnc(c2=O)N[C@@H](Cc2ccccc2)CNC(=O)C1
Outgoing: 17 µM

Incoming: Repeat with Nc1cc(-n2nnnc2C(=O)Nc2ccc(-c3ccccc3S(N)(=O)=O)cc2)ccc1Cl
Outgoing: > 1.6 µM

Incoming: Now this one: N=C(N)c1cccc(C(=O)N[C@@H](C(=O)NCc2ccc(CN)cc2)c2ccccc2)c1
Outgoing: 4.1 µM

Incoming: // query: CC1CNc2c(cccc2S(=O)(=O)N[C@@H](CCCN=C(N)N)C(=O)N2CC[C@@H](C)CC2C(=O)O)C1 (stereo partly drawn)
Outgoing: 5 µM

Incoming: Queued: Cc1cnc(NCCc2ccccc2)c(=O)n1CC(=O)NCc1ccc2nccn2c1C
Outgoing: 6.8 µM

Incoming: Here is the next compound: N=C(N)c1cccc(C2=NOC(Cn3cnnn3)(C(=O)Nc3ccc(-c4ccccc4S(N)(=O)=O)cc3Cl)C2)c1.O=C(O)C(F)(F)F (stereo not drawn)
Outgoing: 0.047 µM

Incoming: Try this compound too: COc1cc(CNc2ccc(C(=N)N)cc2)c(NS(C)(=O)=O)cc1OCc1ccccc1
Outgoing: 0.4 µM

Incoming: Entry to check: N=C(N)c1cccc(C(=O)N[C@@H](C(=O)N2CCN(c3ccc(F)cc3)CC2)c2ccccc2)c1
Outgoing: 1.26 µM
